Tested on: HCT-116 colon
protocolDescription: NCI-60 one-dose screen, 48 h
conditionsUsed: 10 µM unless noted
Compounds without any hit were thinned out: in the full panel of roughly 83,000, 20% have a hit. Calls of active or inactive are those of the source. The calls were made as follows: active = growth percent below 10; inactive = the rest.
Field 'call' accepts active, inactive

### Prompt Test call for this molecule, please: C#COc1cccc(Nc2ncnc3cc(NC(=O)CF)ccc23)c1
### Response inactive

### Prompt Test call for this molecule, please: O=C1CCCCC1CN1CCCCC1 (configuration not stated)
### Response inactive

### Prompt Test call for this molecule, please: CCN(CC)CCn1c(=O)n(C)c2ccccc21
### Response inactive

### Prompt Test call for this molecule, please: NC(N)=NC(N)=Nc1ccc(Cl)cc1
### Response inactive

### Prompt Test call for this molecule, please: Cc1ccccc1-n1c(/C=C\c2ccccn2)nc2ccccc2c1=O
### Response inactive

### Prompt Test call for this molecule, please: ClCc1ccc(Cl)c(Cl)c1
### Response inactive

### Prompt Test call for this molecule, please: O=C1NC(=O)C(=C/C=C/c2ccccc2)C(=O)N1
### Response active

### Prompt Test call for this molecule, please: Cc1cc2c(cc1-c1ccnc(/C=C/C(=O)O)c1)C(C)(C)CCC2(C)C
### Response inactive

Where these numbers come from: PubChem BioAssay (NCI)
